- Tested on: IGROV1 ovarian
- MEASUREMENT_DESCRIPTION: NCI tumour cell line growth inhibition, 48 h
READOUT_NAME: TGI

COMPOUND: C=CCOC(=O)CC[N+]1=CCC(c2ccccc2)(c2ccccc2)O1
READOUT_NAME: TGI
RECORDED_MEASUREMENT: > 100 µM

COMPOUND: CC1=C2C(=O)c3ccccc3C2=C(C)S(=O)(=O)O1
READOUT_NAME: TGI
RECORDED_MEASUREMENT: > 10 µM

COMPOUND: CSc1c(C)c(C)nn1-c1ccccc1
READOUT_NAME: TGI
RECORDED_MEASUREMENT: > 100 µM

Exercise: Look at this compound and give its reported TGI. COC1OC(C)C(OCc2ccccc2)C(OS(=O)(=O)c2ccc(C)cc2)C1OS(=O)(=O)c1ccc(C)cc1 (centres undefined)
Key: > 100 µM

The measured values listed here are drawn from PubChem BioAssay (NCI).
